B1: ZNF193 (parent)
chain: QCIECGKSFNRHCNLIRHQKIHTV

Variants of: B1
Assay: protein stability index of a GFP-peptide fusion (GPS, HEK-293T) (PSI 1-6); higher = more stable;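 also: lentivirally expressed fusions sorted by FACS into six bins by GFP to DsRed ratio, PSI derived from sequencing read proportions per bin multiplied by bin number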
Conditions: c terminus: a fixed tail appended
endpointName: protein stability index
Format: numeric value only, no unit, no commentary.

Below, 2 variants whose answers are already recorded.
QCIECGKSFNRICNLIRHQKIHTV :: 3.43
QCIECGKSFNRHCSLIRHQKIHTV :: 3.71

QUERY: Quick one: protein stability index for QCIECGKSFNRHCNEIRHQKIHTV ?
RESULT: 3.06

QUERY: Quick one: protein stability index for QCIEFGKSFNRHCNLIRHQKIHTV ?
RESULT: 1.44

QUERY: Quick one: protein stability index for QCGECGKSFNRHCNLIRHQKIHTV ?
RESULT: 3.72

QUERY: Quick one: protein stability index for QCIECGKSFNRHCNLIRHQCIHTV ?
RESULT: 3.47

QUERY: Quick one: protein stability index for QCIECQKSFNRHCNLIRHQKIHTV ?
RESULT: 2.44

QUERY: Quick one: protein stability index for QCIEEGKSFNRHCNLIRHQKIHTV ?
RESULT: 2.71

QUERY: Quick one: protein stability index for QCIECGKSFNRHCNLQRHQKIHTV ?
RESULT: 3.64

QUERY: Quick one: protein stability index for QCIECGKSFNRHCNLIRHQKYHTV ?
RESULT: 3.6

QUERY: Quick one: protein stability index for QCIEGGKSFNRHCNLIRHQKIHTV ?
RESULT: 2.01

QUERY: Quick one: protein stability index for ICIECGKSFNRHCNLIRHQKIHTV ?
RESULT: 3.28

QUERY: Quick one: protein stability index for QCIEKGKSFNRHCNLIRHQKIHTV ?
RESULT: 2.09

QUERY: Quick one: protein stability index for QCIECGKSFNRHMNLIRHQKIHTV ?
RESULT: 2.91

QUERY: Quick one: protein stability index for QCIECGKSFNRHCNLIRHQKIHTL ?
RESULT: 3.43

QUERY: Quick one: protein stability index for QCIECGKSANRHCNLIRHQKIHTV ?
RESULT: 2.24

QUERY: Quick one: protein stability index for QCIECGKSFQRHCNLIRHQKIHTV ?
RESULT: 3.73

QUERY: Quick one: protein stability index for QCIECGKSFNRGCNLIRHQKIHTV ?
RESULT: 3.02

QUERY: Quick one: protein stability index for QCIEWGKSFNRHCNLIRHQKIHTV ?
RESULT: 2.07

QUERY: Quick one: protein stability index for QCIECGKSFNRHCNLIRHQKIYTV ?
RESULT: 1.56

QUERY: Quick one: protein stability index for QCIECGKSFNRHCNLIRQQKIHTV ?
RESULT: 2.24

QUERY: Quick one: protein stability index for QCMECGKSFNRHCNLIRHQKIHTV ?
RESULT: 3.69
